Overview of reported log10(IC50) across a group of molecules:
Test system: HFF
Assay: Antiviral activity against towne strain HCMV was determined by plaque reduction assay in duplicate wells using HFF cells
Type: functional, cell-based
Details: Homo sapiens
RECORDED_ENDPOINT: log10(IC50) (log10 of the value in µM)

[
  {
    "MOLECULE": "CC(C)Nc1nc2cc3cc(Cl)c(Cl)cc3cc2n1C1O[C@H](CO)[C@@H](O)[C@H]1O (some centres not stated)",
    "MEASURED": 1.51
  },
  {
    "MOLECULE": "OC[C@H]1OC(n2c(Cl)nc3cc4cc(Cl)c(Cl)cc4cc32)[C@H](O)[C@@H]1O (some centres not stated)",
    "MEASURED": 0.30
  },
  {
    "MOLECULE": "OC[C@H]1OC(n2c(SCc3ccccc3)nc3nc4cc(Cl)c(Cl)cc4cc32)[C@H](O)[C@@H]1O (some centres not stated)",
    "MEASURED": 0.62
  },
  {
    "MOLECULE": "OC[C@H]1OC(n2c(NC3CC3)nc3nc4cc(Cl)c(Cl)cc4nc32)[C@H](O)[C@@H]1O (some centres not stated)",
    "MEASURED": 1.51
  },
  {
    "MOLECULE": "OC[C@H]1O[C@@H](n2cnc3cc(Cl)c(Cl)cc32)[C@H](O)[C@@H]1O",
    "MEASURED": 1.62
  },
  {
    "MOLECULE": "OC[C@H]1O[C@@H](n2c(Cl)nc3cc(Cl)c(Cl)cc32)[C@H](O)[C@@H]1O",
    "MEASURED": 0.46
  },
  {
    "MOLECULE": "CC(C)Nc1nc2cc3cc(Cl)c(Cl)cc3nc2n1C1O[C@H](CO)[C@@H](O)[C@H]1O (some centres not stated)",
    "MEASURED": 1.51
  },
  {
    "MOLECULE": "OC[C@H]1OC(n2c(Cl)nc3nc4cc(Cl)c(Cl)cc4cc32)[C@H](O)[C@@H]1O (some centres not stated)",
    "MEASURED": 0.30
  },
  {
    "MOLECULE": "OC[C@H]1OC(n2c(SCc3ccccc3)nc3nc4cc(Cl)c(Cl)cc4nc32)[C@H](O)[C@@H]1O (some centres not stated)",
    "MEASURED": 0.62
  }
]
